Data provenance: paper PMC9886271

Experiment: In vivo toxicity, Up-and-Down method, single i.v. dose via tail vein
Settings: male, CD-1, mouse, iv
Counter-ions that a name gives are not always drawn.
parameter: LD50 at 20 min (mg/kg)
# output: bare number, implied unit mg/kg

Return the recorded LD50 at 20 min value; entry: CCC(=O)C(CC(C)N(C)C)(c1ccccc1)c1ccccc1 (racemic) [methadone, (±)-Methadone hydrochloride, reference compound] 11.6

----------
Conditions: human, pH 7.4
Counter-ions that a name gives are not always drawn.
parameter: Km at 20 min (µM)
# output: bare number, implied unit µM

Return the recorded Km at 20 min value; entry: CCC(=O)C(CC(C)N(C)C)(c1ccccc1)c1ccccc1 (racemic) [methadone, (±)-Methadone hydrochloride, reference compound] 82.9
